B1: Tudor domain-containing protein 3, residues 554 to 611; numbered along this chain, Q9H7E2 (parent)
chain: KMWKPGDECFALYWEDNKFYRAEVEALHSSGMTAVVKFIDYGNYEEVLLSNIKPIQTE

Variants of: B1
assay name: abundance fitness (aPCA) (normalised: wild type 0, dead -1); higher = more abundant; growth selection in yeast, the domain comes from the species named
condition summary: Homo sapiens
endpoint label: abundance fitness

1. G42H -0.395
2. H28L -0.087
3. N17M -0.191
4. Y41T 0.132
5. I52C -0.37
6. Y13C 0.068
7. R21C -0.826
8. E15R 0.022
9. L49D -0.886
10. M32R -0.009
11. L48F -0.224
12. P5M -0.401

Reference source for all entries: the Human Domainome abundance scans (Beltran et al. 2025)
